B1: TOR1AIP2 (parent)
chain: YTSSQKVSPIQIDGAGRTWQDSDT

Variants of: B1
EXPERIMENT SUMMARY: protein stability index of a GFP-peptide fusion (GPS, HEK-293T) (PSI 1-6); higher = more stable;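 further: lentivirally expressed fusions sorted by FACS into six bins by GFP to DsRed ratio, PSI derived from sequencing read proportions per bin multiplied by bin number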
CONDITION INFO: c terminus: a fixed tail appended
Entries are grouped by protein stability index into these classes: class 0 (below 3), class 1 (3 to below 4), class 2 (4 or more)

Example cases with answers are listed next.
>  <MUTATION KEY>
D23N

>  <ANSWER LABEL>
class 1

$$$$
>  <MUTATION KEY>
I12R

>  <ANSWER LABEL>
class 1

$$$$
>  <MUTATION KEY>
Q20A

>  <ANSWER LABEL>
class 1

$$$$
>  <MUTATION KEY>
Q11R

>  <ANSWER LABEL>
class 1

$$$$
>  <MUTATION KEY>
S8T

>  <ANSWER LABEL>
class 1

$$$$

Let's switch to this variant now.
# bin label for P9G
class 1
